meta.source: patent US10377709B2

Tested on: HBV
Assay: Anti-HBV activity in HepG2.2.15 stable transfected cell line (HBV DNA from secreted virions, realtime PCR)
Type: cell-based, Hepatitis B virus
Settings: HepG2.2.15 cells; 6 days of treatment; HBV DNA from secreted virions by realtime PCR
pEC50: −log10 of the molar value.
Catalogue of pEC50 readings, one per entry.

Would you please look over these solved cases?
>  <Compound>
CC1C(C(=O)Nc2ccc(F)c(Cl)c2F)CCCN1C(=O)C(=O)N[C@H](C)C(F)(F)F (single isomer, unassigned) [Compound 35d]

>  <pEC50>
< 6.00

$$$$
>  <Compound>
CC1C(C(=O)Nc2ccc(F)c(Cl)c2F)CCCN1C(=O)C(=O)N[C@H](C)C(F)(F)F (single isomer, unassigned) [Compound 35c]

>  <pEC50>
< 6.00

$$$$
>  <Compound>
CC(C)NC(=O)C(=O)N1CCC(C(=O)Nc2cc(F)c(F)c(Cl)c2)[C@@H]1C (single isomer, unassigned) [Compound 29a]

>  <pEC50>
8.00

$$$$

Give the measured pEC50 for Cc1cc(NC(=O)C2CC(C)N(C(=O)C(=O)NC3(C)COC3)C2)ccc1F (single isomer, unassigned) [Compound 17c]
< 6.00

Provide pEC50 value for the following compound: CC(C)NC(=O)C(=O)N1CCC(C(=O)Nc2cc(F)c(F)c(Cl)c2)[C@@H]1C (single isomer, unassigned) [Compound 29b]
< 6.00

Note down pEC50 recorded for Cc1cc(NC(=O)C2CC(C)N(C(=O)C(=O)NC3(C)COC3)C2)ccc1F (single isomer, unassigned) [Compound 17b]
6.04
